B1: Zinc finger MYM-type protein 3, residues 405 to 444; numbered along this chain, Q14202 (parent)
chain: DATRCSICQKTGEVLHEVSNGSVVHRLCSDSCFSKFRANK

Variants of: B1
Test: abundance fitness (aPCA) (normalised: wild type 0, dead -1); higher = more abundant; growth selection in yeast, the domain comes from the species named
Settings: Homo sapiens
Measured Quantity: abundance fitness
Simply state the number, no unit and no words.

Answered cases to consult:
{"Sequence Change": "S22Y", "abundance fitness": -0.303}
{"Sequence Change": "K40Y", "abundance fitness": -0.072}

Now for another entry.
Exam item: For the variant "G21L" , give its measured abundance fitness value.
Marked response: -0.298

The origin of these recorded values is the Human Domainome abundance scans (Beltran et al. 2025).
